Where do these numbers come from? They come from patent US11945822B2.

TARGET DESC: CDK13/CycK (Homo sapiens)
Construct: either as full-length or enzymatically active fragments
Sequence (Q14004 whole entry, the tested form may be a part): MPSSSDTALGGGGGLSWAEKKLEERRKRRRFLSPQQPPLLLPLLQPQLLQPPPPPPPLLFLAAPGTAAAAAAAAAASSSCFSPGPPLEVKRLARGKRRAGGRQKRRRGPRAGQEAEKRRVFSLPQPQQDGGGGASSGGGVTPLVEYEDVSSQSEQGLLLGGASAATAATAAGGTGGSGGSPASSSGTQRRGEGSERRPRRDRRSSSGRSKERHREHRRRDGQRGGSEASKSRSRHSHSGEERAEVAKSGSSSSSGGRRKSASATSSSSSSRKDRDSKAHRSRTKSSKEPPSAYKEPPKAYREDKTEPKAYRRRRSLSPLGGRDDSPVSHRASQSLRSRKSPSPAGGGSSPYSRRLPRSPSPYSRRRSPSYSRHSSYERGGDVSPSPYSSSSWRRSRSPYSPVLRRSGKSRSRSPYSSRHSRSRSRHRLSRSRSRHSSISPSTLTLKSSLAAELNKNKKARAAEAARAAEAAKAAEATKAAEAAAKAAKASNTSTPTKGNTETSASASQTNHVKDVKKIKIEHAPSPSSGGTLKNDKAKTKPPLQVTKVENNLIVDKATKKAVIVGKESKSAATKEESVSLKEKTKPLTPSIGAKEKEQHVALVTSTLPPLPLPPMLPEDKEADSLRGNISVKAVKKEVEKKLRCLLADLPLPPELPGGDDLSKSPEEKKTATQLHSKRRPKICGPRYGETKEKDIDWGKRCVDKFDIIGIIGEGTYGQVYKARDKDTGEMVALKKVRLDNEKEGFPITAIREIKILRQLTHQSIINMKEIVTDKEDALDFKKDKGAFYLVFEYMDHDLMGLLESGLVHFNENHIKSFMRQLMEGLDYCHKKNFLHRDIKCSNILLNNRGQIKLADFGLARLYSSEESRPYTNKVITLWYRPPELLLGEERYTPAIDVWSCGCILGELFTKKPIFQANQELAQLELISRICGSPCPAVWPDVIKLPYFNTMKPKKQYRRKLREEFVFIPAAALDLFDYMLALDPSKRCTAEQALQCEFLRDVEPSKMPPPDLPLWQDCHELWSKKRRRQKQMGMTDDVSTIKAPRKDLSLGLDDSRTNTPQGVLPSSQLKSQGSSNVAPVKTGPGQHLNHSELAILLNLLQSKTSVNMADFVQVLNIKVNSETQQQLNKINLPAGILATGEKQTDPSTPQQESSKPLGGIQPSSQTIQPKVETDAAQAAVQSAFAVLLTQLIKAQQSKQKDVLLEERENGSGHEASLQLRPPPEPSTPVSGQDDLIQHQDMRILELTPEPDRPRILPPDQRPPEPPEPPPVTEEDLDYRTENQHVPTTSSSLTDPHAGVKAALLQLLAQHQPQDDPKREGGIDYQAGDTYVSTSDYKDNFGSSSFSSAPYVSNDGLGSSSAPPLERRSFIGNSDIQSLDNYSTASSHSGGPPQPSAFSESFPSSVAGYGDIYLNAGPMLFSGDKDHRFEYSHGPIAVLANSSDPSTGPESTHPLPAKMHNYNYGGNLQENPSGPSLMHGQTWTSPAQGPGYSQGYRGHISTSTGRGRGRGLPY
Sequence (O75909 whole entry partner, the tested form may be a part): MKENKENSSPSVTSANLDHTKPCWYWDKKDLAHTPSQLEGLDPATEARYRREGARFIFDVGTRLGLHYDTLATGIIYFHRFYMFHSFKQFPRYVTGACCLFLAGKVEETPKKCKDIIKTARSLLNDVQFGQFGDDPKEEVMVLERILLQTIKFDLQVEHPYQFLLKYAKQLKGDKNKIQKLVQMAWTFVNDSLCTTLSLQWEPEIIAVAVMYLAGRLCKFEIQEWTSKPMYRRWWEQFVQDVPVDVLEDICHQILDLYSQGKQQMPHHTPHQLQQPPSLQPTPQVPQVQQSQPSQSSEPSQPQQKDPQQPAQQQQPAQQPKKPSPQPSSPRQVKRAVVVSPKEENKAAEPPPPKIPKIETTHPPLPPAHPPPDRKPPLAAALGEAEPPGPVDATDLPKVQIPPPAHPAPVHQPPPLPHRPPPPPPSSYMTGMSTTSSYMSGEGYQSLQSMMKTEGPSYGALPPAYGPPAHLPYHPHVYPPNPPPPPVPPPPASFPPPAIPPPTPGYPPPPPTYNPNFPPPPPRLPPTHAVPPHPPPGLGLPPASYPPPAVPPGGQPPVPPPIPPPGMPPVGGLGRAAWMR
ASSAY PROCEDURE: In vitro IC50 profile for CDKs family kinase (33PanQinase radiometric assay)
CONDITION SET: CDK7 selectivity profile in CDKs family
pIC50: −log10 of the molar value.
MEASURED PROPERTY: pIC50

[Q] What pIC50 value was documented for this molecule, "CC(C)c1cnn2c(NCc3c(Cl)cccc3-n3ccc(C(C)(C)O)n3)nc(N3CCC(N)CC3)nc12" ?
[A] < 5.00

* * *

TARGET DESC: CDK5/p25 (Homo sapiens)
Construct: purchased Invitrogen PR8543B
Sequence (Q00535 whole entry): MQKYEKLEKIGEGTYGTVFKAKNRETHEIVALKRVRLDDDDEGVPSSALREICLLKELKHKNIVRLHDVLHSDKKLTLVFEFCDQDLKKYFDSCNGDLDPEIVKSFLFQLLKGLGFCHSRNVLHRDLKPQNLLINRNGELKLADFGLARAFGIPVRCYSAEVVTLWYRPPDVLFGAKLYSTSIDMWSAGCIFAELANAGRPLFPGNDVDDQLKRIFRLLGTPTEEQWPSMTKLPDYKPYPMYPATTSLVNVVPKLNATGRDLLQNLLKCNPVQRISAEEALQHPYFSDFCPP
Sequence (Q15078 99-307 partner limits assumed): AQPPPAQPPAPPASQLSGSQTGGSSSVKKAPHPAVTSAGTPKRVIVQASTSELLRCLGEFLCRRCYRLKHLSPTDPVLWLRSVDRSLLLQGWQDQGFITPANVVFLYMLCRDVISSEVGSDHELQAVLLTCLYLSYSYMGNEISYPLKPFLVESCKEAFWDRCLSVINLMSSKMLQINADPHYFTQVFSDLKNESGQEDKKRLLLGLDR
ASSAY PROCEDURE: Enzymatic assay for CDK5 (FRET based LANCE Ultra kinase assay)
Assay type: biochemical
CONDITION SET: read-out: CDK5 enzymatic activity (IC50 range)
Would you mind telling me the reported IC50 of each entry?

[Q] What is its IC50 for CDK5/p25 (Homo sapiens)? Entry: "CC(C)c1cnn2c(NCc3ccccc3-n3cccn3)nc(N3CCC(N4CCNCC4)CC3)nc12"
[A] 100 to 1000 nM

[Q] What is its IC50 for CDK5/p25 (Homo sapiens)? Entry: "CC(C)c1cnn2c(NCc3ccccc3-n3ccc(C(C)(C)O)n3)nc(NCC3CCNCC3)nc12"
[A] > 1000 nM

[Q] What is its IC50 for CDK5/p25 (Homo sapiens)? Entry: "CNC(=O)c1ccccc1CNc1nc(N2CCC(N)CC2)nc2c(C(C)C)cnn12"
[A] 100 to 1000 nM

[Q] What is its IC50 for CDK5/p25 (Homo sapiens)? Entry: "CC(C)c1cnn2c(NCc3ccccc3-c3nc4ccccc4n3C)nc(N3CCC(N)CC3)nc12"
[A] 100 to 1000 nM

[Q] What is its IC50 for CDK5/p25 (Homo sapiens)? Entry: "CC(=O)NC1CCN(c2nc(NCc3ccccc3-c3cc4ccccc4[nH]3)n3ncc(C(C)C)c3n2)CC1"
[A] > 1000 nM

[Q] What is its IC50 for CDK5/p25 (Homo sapiens)? Entry: "CC(C)c1cnn2c(NCc3ccccc3-c3cc4ccccc4cn3)nc(N3CCC(N)CC3)nc12"
[A] < 100 nM

[Q] What is its IC50 for CDK5/p25 (Homo sapiens)? Entry: "CC(C)c1cnn2c(NCc3ccccc3-n3cc4cc(Oc5ccccc5)ccc4n3)nc(N3CCC(N)CC3)nc12"
[A] > 1000 nM

[Q] What is its IC50 for CDK5/p25 (Homo sapiens)? Entry: "NC1CCN(c2nc(NCc3ccccc3-n3cccn3)n3ncc(Br)c3n2)CC1"
[A] < 100 nM

[Q] What is its IC50 for CDK5/p25 (Homo sapiens)? Entry: "CC(C)c1cnn2c(NCc3ccccc3-n3cccn3)nc(-c3ccc(Cl)c(C4CCNCC4)c3)nc12"
[A] 100 to 1000 nM

[Q] What is its IC50 for CDK5/p25 (Homo sapiens)? Entry: "CCCc1ccccc1CNc1nc(N2CCC(N)CC2)nc2c(C(C)C)cnn12"
[A] 100 to 1000 nM

[Q] What is its IC50 for CDK5/p25 (Homo sapiens)? Entry: CC(C)c1cnn2c(NCc3ccccc3N3CC4CCCCC4C3)nc(N3CCC(N)CC3)nc12 (stereo not drawn)
[A] > 1000 nM

[Q] What is its IC50 for CDK5/p25 (Homo sapiens)? Entry: "CNC(=O)c1cccc(F)c1CNc1nc(N2CCC(N)CC2)nc2c(C(C)(C)C)cnn12"
[A] > 1000 nM

[Q] What is its IC50 for CDK5/p25 (Homo sapiens)? Entry: "CC(C)c1cnn2c(NCc3ccccc3-n3cccn3)nc(-c3ccc(C4CCNCC4)cc3)nc12"
[A] 100 to 1000 nM

[Q] What is its IC50 for CDK5/p25 (Homo sapiens)? Entry: "CC(C)c1cnn2c(NCc3ccccc3-n3cc4cc(NS(C)(=O)=O)ccc4n3)nc(N3CCC(N)CC3)nc12"
[A] < 100 nM

[Q] What is its IC50 for CDK5/p25 (Homo sapiens)? Entry: "CC(C)c1cnn2c(NCc3cccc(-n4cccn4)c3)nc(N3CCC(N)CC3)nc12"
[A] < 100 nM

[Q] What is its IC50 for CDK5/p25 (Homo sapiens)? Entry: "CC(C)c1cnn2c(NCc3ccccc3-n3cc(C(=O)NC4CCOCC4)cn3)nc(N3CCC(N)CC3)nc12"
[A] < 100 nM

[Q] What is its IC50 for CDK5/p25 (Homo sapiens)? Entry: "CC(C)(C)c1cnn2c(NCc3c(F)cccc3-n3cccn3)nc(N3CCC(N)CC3)nc12"
[A] 100 to 1000 nM

[Q] What is its IC50 for CDK5/p25 (Homo sapiens)? Entry: "CC(C)c1cnn2c(NCc3ccccc3-c3ccc4ccccc4n3)nc(NCC[C@H](O)CN)nc12"
[A] > 1000 nM

[Q] What is its IC50 for CDK5/p25 (Homo sapiens)? Entry: "CC(C)c1cnn2c(NCc3ccccc3-c3cc4ccccc4[nH]3)nc(OC3CCN(C)CC3)nc12"
[A] 100 to 1000 nM

[Q] What is its IC50 for CDK5/p25 (Homo sapiens)? Entry: "CC(C)c1cnn2c(NCc3ccccc3-n3ccc(C(=O)NC4CCOCC4)n3)nc(N3CCC(N)CC3)nc12"
[A] < 100 nM

[Q] What is its IC50 for CDK5/p25 (Homo sapiens)? Entry: "CC(C)c1cnn2c(NCc3c(Cl)cccc3-n3cc(N4CCOCC4)cn3)nc(N3CCC(N)CC3)nc12"
[A] > 1000 nM

[Q] What is its IC50 for CDK5/p25 (Homo sapiens)? Entry: "CC(C)c1cnn2c(NCc3ccccc3NC(=O)c3cccc(NC(=O)CCCN(C)C)c3)nc(N3CCC(N)CC3)nc12"
[A] 100 to 1000 nM

[Q] What is its IC50 for CDK5/p25 (Homo sapiens)? Entry: "CC(=O)Nc1ccc2[nH]c(-c3ccccc3CNc3nc(N4CCC(N)CC4)nc4c(C(C)C)cnn34)cc2c1"
[A] < 100 nM

[Q] What is its IC50 for CDK5/p25 (Homo sapiens)? Entry: "CC(C)c1cnn2c(NCc3cccc4c3N(C)C(=O)CC4)nc(N3CCC(N)CC3)nc12"
[A] < 100 nM

[Q] What is its IC50 for CDK5/p25 (Homo sapiens)? Entry: "CC(C)c1cnn2c(NCc3cccc4cccnc34)nc(N3CCC(N)CC3)nc12"
[A] < 100 nM

[Q] What is its IC50 for CDK5/p25 (Homo sapiens)? Entry: "CNC(=O)c1ccn(-c2cccc(Cl)c2CNc2nc(N3CCC(N)CC3)nc3c(C(C)C)cnn23)n1"
[A] 100 to 1000 nM

[Q] What is its IC50 for CDK5/p25 (Homo sapiens)? Entry: "COc1cccc(-c2cc3ccccc3[nH]2)c1CNc1nc(N2CCC(N)CC2)nc2c(C(C)C)cnn12"
[A] > 1000 nM

[Q] What is its IC50 for CDK5/p25 (Homo sapiens)? Entry: "CC(C)c1cnn2c(NCc3ccccc3-c3cc4cccc(NC(=O)CCCN(C)C)c4[nH]3)nc(N3CCC(N)CC3)nc12"
[A] < 100 nM

[Q] What is its IC50 for CDK5/p25 (Homo sapiens)? Entry: "CC(C)c1cnn2c(NCc3ccccc3NC(=O)c3ccccc3)nc(N3CCC(N)CC3)nc12"
[A] 100 to 1000 nM

[Q] What is its IC50 for CDK5/p25 (Homo sapiens)? Entry: "CC(C)c1cnn2c(NCc3c(Cl)cccc3-n3ccc(C(=O)NC4COC4)n3)nc(N3CCC(N)CC3)nc12"
[A] 100 to 1000 nM

* * *

TARGET DESC: CDK1/Cyclin B (Homo sapiens, UniProt P06493)
Construct: purchased Invitrogen PR4768C
Sequence (P06493 whole entry): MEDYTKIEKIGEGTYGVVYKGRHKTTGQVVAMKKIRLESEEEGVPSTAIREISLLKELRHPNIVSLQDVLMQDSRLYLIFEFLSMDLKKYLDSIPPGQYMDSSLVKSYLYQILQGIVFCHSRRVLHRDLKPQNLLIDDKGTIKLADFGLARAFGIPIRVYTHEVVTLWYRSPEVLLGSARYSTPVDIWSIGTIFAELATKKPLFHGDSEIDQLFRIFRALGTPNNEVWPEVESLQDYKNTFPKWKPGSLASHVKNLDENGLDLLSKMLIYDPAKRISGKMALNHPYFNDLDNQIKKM
Sequence (P14635 whole entry partner): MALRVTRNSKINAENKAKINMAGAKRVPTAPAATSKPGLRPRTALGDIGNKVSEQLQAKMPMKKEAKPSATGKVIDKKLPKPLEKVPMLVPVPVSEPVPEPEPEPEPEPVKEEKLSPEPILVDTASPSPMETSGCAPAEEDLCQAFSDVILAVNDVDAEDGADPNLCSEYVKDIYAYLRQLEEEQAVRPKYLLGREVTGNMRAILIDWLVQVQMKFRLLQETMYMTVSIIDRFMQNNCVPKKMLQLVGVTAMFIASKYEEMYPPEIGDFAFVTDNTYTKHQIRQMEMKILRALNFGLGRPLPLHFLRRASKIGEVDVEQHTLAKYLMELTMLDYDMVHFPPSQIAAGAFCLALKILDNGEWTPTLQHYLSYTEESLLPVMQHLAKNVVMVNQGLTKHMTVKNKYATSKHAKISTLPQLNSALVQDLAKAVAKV
ASSAY PROCEDURE: Enzymatic assay for CDK1 (FRET based LANCE Ultra kinase assay)
Type: biochemical
CONDITION SET: read-out: CDK1 enzymatic activity (IC50 range)
Method: Enzymatic Binding Assay Protocol for CDK1, CDK2, CDK5 and CDK7 Inhibition activity of the respective compound on CDK kinase under Km value of ATP was tested in FRET based The LANCE® Ultra kinase assay (Perkin Elmer), which uses a ULight™-labeled peptide substrate and an appropriate Europium-labeled anti-phospho-antibody. […] Data was analyzed using XL Fit software.
pIC50: −log10 of the molar value.
Would you mind telling me the reported pIC50 of each entry?

[Q] What pIC50 value was documented for this compound, "CC(C)c1cnn2c(NCc3ccccc3-c3cc4ccccc4[nH]3)nc(N3CCC[C@@H](N)C3)nc12" ?
[A] < 6.00

[Q] What pIC50 value was documented for this compound, "CC(C)c1cnn2c(NCc3ccccc3N3CCc4ccccc43)nc(N3CCC(N)CC3)nc12" ?
[A] < 6.00

[Q] What pIC50 value was documented for this compound, "CC(C)c1cnn2c(NCc3ccccc3-n3ccc(C(C)(C)O)n3)nc(NC[C@H]3CCNC[C@@H]3O)nc12" ?
[A] < 6.00

[Q] What pIC50 value was documented for this compound, "CC(C)c1cnn2c(NCc3ccccc3-c3cccs3)nc(N3CCC(N)CC3)nc12" ?
[A] 6.00 to 7.00

[Q] What pIC50 value was documented for this compound, "CC(C)c1cnn2c(NCc3ccccc3-n3cc4c(n3)CCC(=O)C4)nc(N3CCC(N)CC3)nc12" ?
[A] < 6.00

[Q] What pIC50 value was documented for this compound, "CC(C)c1cnn2c(NCc3c(Cl)cccc3-c3ccn(C4CCNCC4)n3)nc(N3CCC(N)CC3)nc12" ?
[A] < 6.00

[Q] What pIC50 value was documented for this compound, "CCC(=O)Nc1cccc(Oc2cccc(CNc3nc(N4CCC(N)CC4)nc4c(C(C)C)cnn34)c2)c1" ?
[A] 6.00 to 7.00

[Q] What pIC50 value was documented for this compound, "CC(C)c1cnn2c(NCc3ccccc3-c3cc4ccccc4[nH]3)nc(NC3CCOCC3)nc12" ?
[A] < 6.00

[Q] What pIC50 value was documented for this compound, "CC(C)c1cnn2c(NCc3ccccc3-n3cc4cc(O)ccc4n3)nc(N3CCC(N)CC3)nc12" ?
[A] < 6.00

[Q] What pIC50 value was documented for this compound, "CC(C)c1cnn2c(NCc3ccccc3-n3cc(N4CCNCC4)cn3)nc(N3CCC(N)CC3)nc12" ?
[A] 6.00 to 7.00

[Q] What pIC50 value was documented for this compound, "CC(C)c1cnn2c(NCc3ccccc3-n3cccn3)nc(-c3ccc(C4CCNCC4)cc3)nc12" ?
[A] < 6.00

[Q] What pIC50 value was documented for this compound, "CC(C)c1cnn2c(NCc3ccccc3NC(=O)c3cccc(NC(=O)CCCN(C)C)c3)nc(N3CCC(N)CC3)nc12" ?
[A] < 6.00

[Q] What pIC50 value was documented for this compound, "CC(=O)NC1CCN(c2nc(NCc3ccccc3-c3cc4ccccc4[nH]3)n3ncc(C(C)C)c3n2)CC1" ?
[A] < 6.00

[Q] What pIC50 value was documented for this compound, CC(C)c1cnn2c(NCc3ccccc3-c3cc4ccccc4[nH]3)nc(N3CCOC(CN)C3)nc12 (racemic) ?
[A] < 6.00

[Q] What pIC50 value was documented for this compound, "CC(C)c1cnn2c(NCc3ccccc3-n3cccn3)nc(-c3cccc(C(=O)N4CCC(N)CC4)c3)nc12" ?
[A] < 6.00

[Q] What pIC50 value was documented for this compound, "CC(C)c1cnn2c(NCc3ccccc3-n3cccn3)nc(N3CCC(O)CC3)nc12" ?
[A] < 6.00

[Q] What pIC50 value was documented for this compound, "CC(C)c1cnn2c(NCc3c(Cl)cccc3-n3ccc(C(=O)NC4CCNCC4)n3)nc(N3CCC(N)CC3)nc12" ?
[A] < 6.00

[Q] What pIC50 value was documented for this compound, "CC(C)c1cnn2c(NCc3c(Cl)cccc3-n3ccc(C(=O)NC4CCOCC4)n3)nc(N3CCC(N)CC3)nc12" ?
[A] < 6.00

[Q] What pIC50 value was documented for this compound, "CC(C)c1cnn2c(NCc3ccccc3-c3nccc4ccccc34)nc(N3CCC(N)CC3)nc12" ?
[A] < 6.00

[Q] What pIC50 value was documented for this compound, "CC(C)c1cnn2c(NCc3ccccc3-c3[nH]c4ccccc4c3Cl)nc(N3CCC(N)CC3)nc12" ?
[A] < 6.00

[Q] What pIC50 value was documented for this compound, "CC(C)c1cnn2c(NCc3ccccc3-c3ccc4[nH]c(NC(=O)C5CC5)nc4c3)nc(N3CCC(N)CC3)nc12" ?
[A] 6.00 to 7.00

[Q] What pIC50 value was documented for this compound, "CC(C)c1cnn2c(NCc3ccccc3-n3ccc(C(C)(C)O)n3)nc(NCC3CCNCC3)nc12" ?
[A] < 6.00

[Q] What pIC50 value was documented for this compound, "CC(C)c1cnn2c(NCc3ccccc3-n3cc4ccc(C(F)(F)F)cc4n3)nc(N3CCC(N)CC3)nc12" ?
[A] < 6.00

[Q] What pIC50 value was documented for this compound, "CC(C)c1cnn2c(NCc3ccsc3-n3cccn3)nc(N3CCC(N)CC3)nc12" ?
[A] 6.00 to 7.00

[Q] What pIC50 value was documented for this compound, "CC(C)c1cnn2c(NCc3ccccc3OC3CCN(C)CC3)nc(N3CCC(N)CC3)nc12" ?
[A] < 6.00

[Q] What pIC50 value was documented for this compound, "NC1CCN(c2nc(NCc3ccccc3-n3cccn3)n3ncc(I)c3n2)CC1" ?
[A] 6.00 to 7.00

[Q] What pIC50 value was documented for this compound, "CC1CCN(c2cnn(-c3cccc(Cl)c3CNc3nc(N4CCC(N)CC4)nc4c(C(C)C)cnn34)c2)CC1" ?
[A] < 6.00

[Q] What pIC50 value was documented for this compound, CCC(O)c1cnn2c(NCc3ccccc3-n3cccn3)nc(N3CCC(N)CC3)nc12 (racemic) ?
[A] < 6.00

[Q] What pIC50 value was documented for this compound, "CC(C)c1cnn2c(NCc3ccccc3-c3ccc4[nH]ncc4c3)nc(N3CCC(N)CC3)nc12" ?
[A] 6.00 to 7.00

[Q] What pIC50 value was documented for this compound, "CC(C)c1cnn2c(NCc3ccccc3-n3cc4cc(C(N)=O)ccc4n3)nc(N3CCC(N)CC3)nc12" ?
[A] 6.00 to 7.00
